# TARGET_UNDER_TEST: T1, mouse DLL4 extracellular domain (mouse, UniProt Q9JI71 27-532)
# T1 construct: extracellular domain; also called muDLL4 ECD; murine DLL4
# TEST_DESCRIPTION: SPR (Biacore)
Below, each of the binders is paired with its reported koff value.
Number first, unit second: that is the form wanted.

h1A11.A2 (antibody, V domains shown, also called h1A11VH.1 / h1A11.A2 VL) VH: EVQLVESGGGLVQPGGSLRLSCAASGFTFSNFPMAWVRQAPGKGLEWVATISSSDGTTYYRDSVKGRFTISRDNAKNSLYLQMNSLRAEDTAVYYCARGYYNSPFAYWGQGTLVTVSS VL: DIQMTQSPSSLSASVGDRVTITCRASQDIYINLAWYQQKPGKSPKLLIFDTNDLADGVPSRFSGSGSGTDFTLTISSLQPEDFATYYCQQYDYVPPTFGQGTKLEIK : 0.000904 s⁻¹
h1A11.C6 (antibody, V domains shown, also called h1A11.C6 VH / h1A11VL.1) VH: EVQLVESGGGLVQPGGSLRLSCAASGFTFRNFPMAWVRQAPGKGLEWVATISSSDGWPTYRDSVKGRFTISRDNAKSSLYLQMNSLRAEDTAVYYCSRGYYNSPFAYWGQGTLVTVSS VL: DIQMTQSPSSLSASVGDRVTITCRASEDIYSNLAWYQQKPGKAPKLLIYDTNNLADGVPSRFSGSGSGTDFTLTISSLQPEDFATYYCQQYNNYPPTFGQGTKLEIK : 2.34e-05 s⁻¹

// returns reported koff for input h1A11.B5 (antibody, V domains shown, also called h1A11.B5 VH / h1A11.B5 VL) VH: EVQLVESGGGLVQPGGSLRLSCAASGFTFRYFPMSWVRQAPGKGLEWVASISGSDGWASYRDSVKGRFTISRDNAKNSLYLQMNSLRAEDTAVYYCARGYYNSPFASWGQGTLVTVSS VL: DIQMTQSPSSLSASVGDRVTITCRASQDIWNNLAWYQQKPGKSPKLLIFDTSYLADGVPSRFSGSGSGTDFTLTISSLQPEDFATYYCQQYDWYPPTFGQGTKLEIK
0.000166 s⁻¹

Measured values drawn from patent US20110217237A1 for this set.
